# PROTOCOL DETAILS: NCI Yeast Anticancer Drug Screen. Data for the sgs1 mgt1 strain (AID 161);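 further: 0% = growth of cultures given vehicle only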
# RUN PARAMETERS: S. cerevisiae sgs1 mgt1 strain, at 50.0 µM, hits give high values
Compounds without any hit were thinned out: in the full panel of roughly 79,000, 15% have a hit.
READOUT NAME: growth inhibition (%)
Answer in %, number only, no unit symbol.

COMPOUND	RESULT UNITS	VALUE MEASURED
Cn1cnc(=S)c2ccccc21	%	-18.3
Cc1cc(Cl)c(O)c(-c2cc(-c3ccc([N+](=O)[O-])cc3)c3c(N)[nH]c(=O)nc3n2)c1	%	35.5
CCCc1oc(C)cc1CC	%	0.2
COc1cc(CC2C(=O)OCC2C2(c3ccc4c(c3)OCO4)SCCCS2)cc(OC)c1OC (centres undefined)	%	0.15
CCOC(=O)C(Cl)C(C)(O)c1ccccc1 (centres undefined)	%	11.9
O=C(O)CCCC(=O)c1ccccc1	%	4.85
COc1cccc2c(=O)c3c(oc12)CCC(C)C3 (centres undefined)	%	5.85
CC(C)=Cc1cc(CCC/C(C)=C/Cc2c(O)cc(C)c(C(=O)O)c2O)co1	%	-1.75
COc1ccn(C2OCCC(OC(C)=O)C2O)c(=O)n1 (centres undefined)	%	6.25
CC(C)(C)OC(=O)N1CC(C)(C)N2C(=O)C3(CCCO3)C12 (centres undefined)	%	-7.15

Recorded result, Cc1cc([N+](=O)[O-])c(Cl)cc1Cl , growth inhibition: -9.35

Recorded result, O=[N+]([O-])c1c(O)c2nonc2c2nn(-c3ccccc3)nc12 , growth inhibition: 55.4

Recorded result, O=c1oc2ccc3ccccc3c2c2c1CCCCC2 , growth inhibition: -14.8

Recorded result, O=c1[nH]nc(Cc2ccc(Cl)cc2)n1CCO , growth inhibition: 19.6

----------
Listed here: items and their measured growth inhibition.
# PROTOCOL DETAILS: NCI Yeast Anticancer Drug Screen. Data for the bub3 strain (AID 167)
# RUN PARAMETERS: S. cerevisiae bub3 mutant strain, at 50.0 µM, hits give high values
The panel holds about 79,000 compounds, 15% with a hit somewhere; the sample as a whole holds those more often.
Answer in %, number only, no unit symbol.

Recorded result, O=C1CCC(c2ccccc2)(C2CCN(Cc3ccc(F)cc3)CC2)C(=O)N1 (stereo not drawn) , growth inhibition: 3.45

----------
# PROTOCOL DETAILS: NCI Yeast Anticancer Drug Screen. Data for the mec2-1 strain (AID 157)
# RUN PARAMETERS: S. cerevisiae mec2-1 strain, at 50.0 µM, hits give high values
This is part of a sample that, as a whole, favours compounds with a hit. Of some 79,000 tested, about 15% had one in any assay.
READOUT NAME: growth inhibition (%)
Answer in %, number only, no unit symbol.

These solved cases illustrate the format of a correct answer.
MOLECULE	RESULT UNITS	growth inhibition
CCCCc1ccc2[n+](c1)C(C(=O)OCC)=PC2 (stereo unspecified)	%	-36.8
C/C(CC(=O)Nc1ccccc1C)=N/NS(=O)(=O)c1ccc(C)cc1	%	-5.2
CCOC(OCC)n1ncnc1NC(=S)NCc1ccccc1	%	-23.6
N#CCCn1nc(SCc2ccccc2)c(=O)[nH]c1=O	%	0.3
CCOC(OCC)/C(C)=N/N(C)C	%	8.95

Recorded result, COC(O)C(=O)c1c2c(cc3c1CCC3)CCC2 (stereo unspecified) , growth inhibition: 45.8

Recorded result, C[Si](C)(C)c1ccc2c(c1O)C(=O)c1ccccc1C2=O , growth inhibition: 16.9

src = PubChem BioAssay (NCI)
